These data points were gathered from the supplement of paper PMC12645437.

systemUnderTest: T1, CRBN, Q96SW2;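 further: pooled lentiviral library of zinc finger degron-EGFP fusions in mCherry-positive Jurkat cells, FACS-sorted after compound exposure, with degron abundance counted by next-generation sequencing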
T1 chain: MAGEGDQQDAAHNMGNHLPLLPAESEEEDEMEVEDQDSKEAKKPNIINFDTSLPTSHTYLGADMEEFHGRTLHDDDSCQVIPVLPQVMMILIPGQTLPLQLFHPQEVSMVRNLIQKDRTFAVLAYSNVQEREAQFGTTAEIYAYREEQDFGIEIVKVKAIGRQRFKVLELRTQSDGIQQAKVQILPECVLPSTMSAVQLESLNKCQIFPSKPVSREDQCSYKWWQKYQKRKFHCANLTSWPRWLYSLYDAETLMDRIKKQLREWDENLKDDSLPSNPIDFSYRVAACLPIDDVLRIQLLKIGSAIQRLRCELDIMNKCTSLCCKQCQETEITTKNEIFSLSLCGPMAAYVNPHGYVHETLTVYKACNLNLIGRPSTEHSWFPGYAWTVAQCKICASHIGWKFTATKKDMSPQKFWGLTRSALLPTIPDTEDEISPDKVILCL
testDescription: log2 fold change of degron read counts, EGFP-low vs EGFP+ sorted cells (limma voom), compound-induced degradation; higher = more compound-induced degradation of the degron-EGFP fusion; degrons are variants of IKZF1/3 zinc finger 2; compound dose not given here
setupConditions: Jurkat; 18 h; compound: compound 22 (5-morpholino-thalidomide)
Over roughly 8,300 sequences, “log2 fold change of degron read counts, EGFP-low vs EGFP+ sorted cells (limma voom), compound-induced degradation” has its median near -1.1; the highest 2% begin near 3.2. This is one part of a sample in which the highest values are shown more often than they occur.
Label rule, in plain words: log2 fold change of degron read counts of -1 and up is Satisfied, under -1 is Not satisfied.

- sequenceChain: "FRCPVCGANFTQKGNLLRHIKL [46F_47R_49P_50V_52G_53A_54N_55F_67L_, Q9UKT9]"
  cat: "Satisfied"
- sequenceChain: "FFCPVCGAKFTQKGNLLRHIKL [46F_47F_49P_50V_52G_53A_54K_55F_67L_, Q9UKT9]"
  cat: "Satisfied"
- sequenceChain: "FGCEICGHTFTQKGNLLRHIKL [46F_47G_49E_50I_52G_53H_54T_55F_67L_, Q9UKT9]"
  cat: "Not satisfied"
- sequenceChain: "FKCPVCGAKFTQKGNLLRHIKL [46F_47K_49P_50V_52G_53A_54K_55F_67L_, Q9UKT9]"
  cat: "Not satisfied"
- sequenceChain: "FICEQCGANFTQKGNLLRHIKL [46F_47I_49E_50Q_52G_53A_54N_55F_67L_, Q9UKT9]"
  cat: "Satisfied"
- sequenceChain: "FRCPICGHTFTQKGNLLRHIKL [46F_47R_49P_50I_52G_53H_54T_55F_67L_, Q9UKT9]"
  cat: "Not satisfied"
- sequenceChain: "FWCPICGRRFTQKGNLLRHIKL [46F_47W_49P_50I_52G_53R_54R_55F_67L_, Q9UKT9]"
  cat: "Satisfied"
- sequenceChain: "FVCEICGAQFTQKGNLLRHIKL [46F_47V_49E_50I_52G_53A_54Q_55F_67L_, Q9UKT9]"
  cat: "Satisfied"
- sequenceChain: "FACPVCGAFFTQKGNLLRHIKL [46F_47A_49P_50V_52G_53A_54F_55F_67L_, Q9UKT9]"
  cat: "Satisfied"
- sequenceChain: "FLCNICGAHFTQKGNLLRHIKL [46F_47L_49N_50I_52G_53A_54H_55F_67L_, Q9UKT9]"
  cat: "Not satisfied"
- sequenceChain: "FWCPVCGAKFTQKGNLLRHIKL [46F_47W_49P_50V_52G_53A_54K_55F_67L_, Q9UKT9]"
  cat: "Satisfied"
- sequenceChain: "FECPVCGAKFTQKGNLLRHIKL [46F_47E_49P_50V_52G_53A_54K_55F_67L_, Q9UKT9]"
  cat: "Not satisfied"
- sequenceChain: "FRCDQCGAHFTQKGNLLRHIKL [46F_47R_49D_50Q_52G_53A_54H_55F_67L_, Q9UKT9]"
  cat: "Not satisfied"
- sequenceChain: "FMCPVCGAKFTQKGNLLRHIKL [46F_47M_49P_50V_52G_53A_54K_55F_67L_, Q9UKT9]"
  cat: "Satisfied"
- sequenceChain: "FLCEICGRIFTQKGNLLRHIKL [46F_47L_49E_50I_52G_53R_54I_55F_67L_, Q9UKT9]"
  cat: "Not satisfied"
- sequenceChain: "FACEICGAQFTQKGNLLRHIKL [46F_47A_49E_50I_52G_53A_54Q_55F_67L_, Q9UKT9]"
  cat: "Satisfied"
- sequenceChain: "FNCEICGAQFTQKGNLLRHIKL [46F_47N_49E_50I_52G_53A_54Q_55F_67L_, Q9UKT9]"
  cat: "Satisfied"
- sequenceChain: "FGCNICGAPFTQKGNLLRHIKL [46F_47G_49N_50I_52G_53A_54P_55F_67L_, Q9UKT9]"
  cat: "Satisfied"
- sequenceChain: "FWCNICGAPFTQKGNLLRHIKL [46F_47W_49N_50I_52G_53A_54P_55F_67L_, Q9UKT9]"
  cat: "Satisfied"
- sequenceChain: "FACPVCGAKFTQKGNLLRHIKL [46F_47A_49P_50V_52G_53A_54K_55F_67L_, Q9UKT9]"
  cat: "Satisfied"
